Would you mind telling me the reported MIC of each entry?
test system: Staphylococcus aureus X1.1; assay: MIC, standard agar-dilution assay; assay type: cell-based; conditions: Staphylococcus aureus X1.1; agar dilution; read-out: MIC
Number first, unit second.

What value of MIC has been reported for the following compound? CCC1OC(=O)CC(O)C(C)C(OC2OC(C)C(O)C(N(C)C)C2O)C(CCOc2ccccc2)CC(C)C(=O)C=CC(C)=CC1COC1OC(C)C(OC(=O)CN2CCN(C)CC2)C(OC)C1OC (centres unmarked)
4 µg/mL

What value of MIC has been reported for the following compound? CCC1OC(=O)CC(O)C(C)C(OC2OC(C)C(OC(C)=O)C(N(C)C)C2OC(C)=O)C(CCOc2ccccc2)CC(C)C(=O)C=CC(C)=CC1COC1OC(C)C(OC(=O)CCl)C(OC)C1OC (centres unmarked)
2 µg/mL

What value of MIC has been reported for the following compound? CCC1OC(=O)CC(O)C(C)C(OC2OC(C)C(O)C(N(C)C)C2O)C(CCOc2ccccc2)CC(C)C(=O)C=CC(C)=CC1COC1OC(C)C(OC(=O)CNCc2ccccc2)C(OC)C1OC (centres unmarked)
1 µg/mL

What value of MIC has been reported for the following compound? CCC1OC(=O)CC(O)C(C)C(OC2OC(C)C(O)C(N(C)C)C2O)C(CCOc2ccccc2)CC(C)C(=O)C=CC(C)=CC1COC1OC(C)C(OC(C)=O)C(OC)C1OC (centres unmarked)
2 µg/mL

What value of MIC has been reported for the following compound? CCC1OC(=O)CC(O)C(C)C(OC2OC(C)C(O)C(N(C)C)C2O)C(CCN2CC(C)CC(C)C2)CC(C)C(=O)C=CC(C)=CC1COC1OC(C)C(OC(C)=O)C(OC)C1OC (centres unmarked)
2 µg/mL
